STUDY TARGET: hNK1 (Homo sapiens)
Construct: expressed in transfected cells; host or cells: CHO
Sequence (P25103 whole entry): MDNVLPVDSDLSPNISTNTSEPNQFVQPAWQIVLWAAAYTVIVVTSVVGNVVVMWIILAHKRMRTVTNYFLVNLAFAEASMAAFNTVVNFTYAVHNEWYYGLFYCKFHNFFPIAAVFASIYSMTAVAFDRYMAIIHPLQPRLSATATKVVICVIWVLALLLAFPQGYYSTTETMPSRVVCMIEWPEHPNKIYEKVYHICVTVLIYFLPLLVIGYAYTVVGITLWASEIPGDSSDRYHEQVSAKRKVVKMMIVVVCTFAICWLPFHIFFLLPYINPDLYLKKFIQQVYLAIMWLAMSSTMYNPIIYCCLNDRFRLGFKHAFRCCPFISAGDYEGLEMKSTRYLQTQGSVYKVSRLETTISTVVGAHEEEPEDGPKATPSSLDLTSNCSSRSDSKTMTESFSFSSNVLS
TEST NAME: hNK1/CHO cell membrane radioligand binding assay ([3H]SP)
EXPERIMENTAL SETUP: ratio human/rat NK1
Non-standard residues stand in square brackets, D forms with d. Residues, ends and D or L forms follow the SMILES beside them. *: point of attachment. NH(3,5-(CF3)2-benzyl) = FC(F)(F)c1cc(CN*)cc(C(F)(F)F)c1; Dmt = Cc1cc(O)cc(C)c1C[C@H](N)C(=O)O
Parameter: Ki^hNK1/Ki^rNK1. Scope: all listed entries.

Reference set (2 entries):
MOLECULE	VALUE MEASURED
Cc1cc(O)cc(C)c1C[C@H](N)C(=O)N[C@H](C)C(=O)NCC(=O)N[C@@H](Cc1ccc(Cl)cc1)C(=O)N1CCC[C@H]1C(=O)N[C@@H](CC(C)C)C(=O)N[C@@H](Cc1c[nH]c2ccccc12)C(=O)NCc1cc(C(F)(F)F)cc(C(F)(F)F)c1	1/9
Cc1cc(O)cc(C)c1C[C@H](N)C(=O)N[C@H](C)C(=O)N[C@@H](Cc1ccccc1)C(=O)NCC(=O)N[C@@H](Cc1ccc(O)cc1)C(=O)N1CCC[C@H]1C(=O)N[C@@H](CC(C)C)C(=O)N[C@@H](Cc1c[nH]c2ccccc12)C(=O)NCc1cc(C(F)(F)F)cc(C(F)(F)F)c1 [AKG118] (H-[Dmt][dA]FGYPLW-{NH(3,5-(CF3)2-benzyl)})	1/11

Note: attention shifts to another entry.
Which measured Ki^hNK1/Ki^rNK1 value corresponds to "CC(C)C[C@H](NC(=O)[C@@H]1CCCN1C(=O)Cc1ccc(CNC(=O)[C@H](Cc2ccccc2)N(C)C(=O)CNC(=O)[C@@H](C)NC(=O)[C@@H](N)Cc2ccc(O)cc2)cc1)C(=O)N[C@@H](Cc1c[nH]c2ccccc12)C(=O)NCc1cc(C(F)(F)F)cc(C(F)(F)F)c1" ?
1/21

---

STUDY TARGET: hNK1 (Homo sapiens)
Construct: expressed in transfected cells; host or cells: CHO
TEST NAME: hNK1/CHO cell membrane radioligand binding assay ([3H]SP)
EXPERIMENTAL SETUP: Ki^hNK1 (nM), hNK1/CHO membranes, [3H]SP
Non-standard residues stand in square brackets, D forms with d. Residues, ends and D or L forms follow the SMILES beside them. *: point of attachment. NH(3,5-(CF3)2-benzyl) = FC(F)(F)c1cc(CN*)cc(C(F)(F)F)c1; NMeW = CN[C@@H](Cc1c[nH]c2ccccc12)C(=O)O; Phe(4-F) = N[C@@H](Cc1ccc(F)cc1)C(=O)O; NMeF = CN[C@@H](Cc1ccccc1)C(=O)O
A collection of compounds and their measured Ki
Could you write the number and then its unit?

COMPOUND	Ki
Cc1cc(O)cc(C)c1C[C@H](N)C(=O)N[C@H](C)C(=O)NCC(=O)N[C@@H](Cc1ccc(F)cc1)C(=O)N1CCC[C@H]1C(=O)N[C@@H](CC(C)C)C(=O)N[C@@H](Cc1c[nH]c2ccccc12)C(=O)NCc1cc(C(F)(F)F)cc(C(F)(F)F)c1	1 nM
CC(C)C[C@H](NC(=O)[C@@H]1CCCN1C(=O)CNC(=O)[C@H](CO)NC(=O)[C@H](Cc1ccccc1)N(C)C(=O)CNC(=O)[C@@H](C)NC(=O)[C@@H](N)Cc1ccc(O)cc1)C(=O)N[C@@H](Cc1c[nH]c2ccccc12)C(=O)NCc1cc(C(F)(F)F)cc(C(F)(F)F)c1 [AKG-CRA-136] (H-Y[dA]G[NMeF]SGPLW-{NH(3,5-(CF3)2-benzyl)})	9.23 nM
CC(C)C[C@H](NC(=O)[C@@H]1CCCN1C(=O)CNC(=O)[C@H](Cc1ccc(F)cc1)NC(=O)CNC(=O)[C@@H](C)NC(=O)[C@@H](N)Cc1ccc(O)cc1)C(=O)N[C@@H](Cc1c[nH]c2ccccc12)C(=O)NCc1cc(C(F)(F)F)cc(C(F)(F)F)c1 [AKG130] (H-Y[dA]G[Phe(4-F)]GPLW-{NH(3,5-(CF3)2-benzyl)})	1.54 nM
CC(C)C[C@H](NC(=O)[C@@H]1CCCN1C(=O)[C@H](CCC(N)=O)NC(=O)[C@H](Cc1ccc(F)cc1)N(C)C(=O)CNC(=O)[C@@H](C)NC(=O)[C@@H](N)Cc1ccc(O)cc1)C(=O)N[C@@H](Cc1c[nH]c2ccccc12)C(=O)NCc1cc(C(F)(F)F)cc(C(F)(F)F)c1	3.2 nM

# query: Ki of entry CC(C)C[C@H](NC(=O)[C@@H]1CCCN1C(=O)[C@H](Cc1ccccc1)N(C)C(=O)[C@H](Cc1c[nH]c2ccccc12)N(C)C(=O)[C@@H]1CCCN1C(=O)[C@@H](N)Cc1ccc(O)cc1)C(=O)N[C@@H](Cc1c[nH]c2ccccc12)C(=O)NCc1cc(C(F)(F)F)cc(C(F)(F)F)c1 [AKG225] (H-YP[NMeW][NMeF]PLW-{NH(3,5-(CF3)2-benzyl)})
14.8 nM
